# Tested on: duck salad (Heteranthera limosa)
# test-summary: Test C flooded paddy test
# Assay type: in vivo
# condition: flooded paddy test, Rate 125 g/ha; scale 0 to 100 (0 no effect, 100 complete control)
# Protocol: At the same time, plants selected from these crop and weed species and also winter barley (Hordeum vulgare), blackgrass (Alopecurus myosuroides), canary grass (Phalaris minor), chickweed (Stellaria media), downy brome (Bromus tectorum), green foxtail (Setaria viridis), Italian ryegrass (Lolium multiflorum), wheat (Triticum aestivum), wild oat (Avena fatua) and windgrass (Apera spica-venti) were treated with postemergence applications of some of the test chemicals formulated in the same manner. […]
measured-attribute: Plant response rating, Ducksalad
Answer using only a numeral; do not append any unit.

In the examples that follow, each entry is paired with its recorded Plant response rating, Ducksalad.
CC(C)(C)c1ccn(C2CCN(c3ccc(Cl)c(Cl)c3)C2=O)n1 (stereo not shown): 50
CC(C)c1ccn(C2OCN(c3cccc(OC(F)(F)F)c3)C2=O)n1 (stereo not shown): 0
CC(C)(C)c1ccn(C2CCN(c3cccc(I)c3)C2=O)n1 (stereo not shown): 10

Read the next record carefully.
Prompt: Which Plant response rating, Ducksalad is reported for this molecule? O=C1C(n2ccc(C3CC3)n2)SCN1c1cccc(C(F)(F)F)c1 (stereo not shown)
Completion: 80

###

# Tested on: pigweed (Amaranthus retroflexus)
# test-summary: Test B preemergence
# Assay type: in vivo
# condition: preemergence; Rate 125 g/ha; scale of 0 to 100 where 0 is no effect and 100 is complete control; 13 to 15 days
measured-attribute: Plant response rating, Pigweed
No unit in the answer, only the number.

Use these answered entries as a reference point.
Cc1ccc(N2CCC(n3ccc(C(C)(C)C)n3)C2=O)cc1OCCCl (stereo not drawn): 100
CCC(CC)c1ccn(C2CCN(c3ccc(Br)c(OC)c3)C2=O)n1 (stereo not drawn): 100

Prompt: Return reported Plant response rating, Pigweed; argument: CCC(C)c1ccn(C2CCN(c3cccc(OC(C)C)c3)C2=O)n1 (stereo not drawn)
Completion: 100

###

# System: corn (Zea mays)
# test-summary: Test C preemergence
# Type: in vivo
# condition: preemergence, Rate 62 g/ha, scale 0 to 100
measured-attribute: Plant response rating, Corn
// return a plain number; no unit text

CCC(C)c1ccn(C2CCN(c3ccc(Cl)c(OC)c3)C2=O)n1 (centres unmarked): 30
CCCC(C)c1ccn(C2CCN(c3ccc(Cl)c(OC)c3)C2=O)n1 (centres unmarked): 0
COc1cc(N2CCC(n3ccc(C(C)C)n3)C2=O)ccc1Br (centres unmarked): 20
CCCC(C)c1ccn(C2SCN(c3cccc(OC(F)(F)F)c3)C2=O)n1 (centres unmarked): 0

Field: next compound
Prompt: Any idea what Plant response rating, Corn was measured for CC(C)OC(=O)c1cccc(N2CCC(n3ccc(C(C)(C)C)n3)C2=O)c1 (centres unmarked) ?
Completion: 0

###

# Tested on: common ragweed (Ambrosia elatior)
# test-summary: Test C preemergence
# Format: in vivo
# condition: preemergence; Rate 250 g/ha; scale 0 to 100, 0 no effect, 100 complete control
// reported Plant response rating, Ragweed, Common per item
The answer should be a number; do not append a unit.

Solved entries (count: 5):
CCC(CC)c1ccn(C2CCN(c3ccc(Br)c(OC)c3)C2=O)n1 (centres unmarked) [Compound 143]: 100
Cc1ccc(N2CCC(n3ccc(C(C)(C)C)n3)C2=O)cc1I (centres unmarked) [Compound 122]: 20
CCC(CC)c1ccn(C2CCN(c3ccc(C)c(OC)c3)C2=O)n1 (centres unmarked) [Compound 81]: 100
COc1cc(N2CCC(n3ccc(C(C)C)n3)C2=O)ccc1C (centres unmarked) [Compound 85]: 100
CC1(c2ccn(C3SCN(c4cccc(C(F)(F)F)c4)C3=O)n2)CC1 (centres unmarked) [Compound 64]: 80

Prompt: Which Plant response rating, Ragweed, Common is reported with common ragweed (Ambrosia elatior) for this entry: CCC(C)c1ccn(C2CCN(c3cccc(OC)c3)C2=O)n1 (centres unmarked) [Compound 95] ?
Completion: 0

Prompt: Kindly state the measured Plant response rating, Ragweed, Common obtained for CCC(CC)c1ccn(C2CCN(c3ccc(F)c(C(F)(F)F)c3)C2=O)n1 (centres unmarked) [Compound 144] with common ragweed (Ambrosia elatior).
Completion: 30

Prompt: Request - read-out Plant response rating, Ragweed, Common | tested on common ragweed (Ambrosia elatior) | compound CCCC(C)c1ccn(C2CCN(c3ccc(Cl)c(OC)c3)C2=O)n1 (centres unmarked) [Compound 121]
Completion: 90

###

# System: velvetleaf (Abutilon theophrasti)
# test-summary: Test B preemergence
# Type: in vivo
# condition: Preemergence, Rate 500 g/ha; scale 0 to 100, 0 no effect, 100 complete control
# Lookup of reported Plant response rating, Velvetleaf keyed by entry
Output spec: single numeric token, no unit.

Known Plant response rating, Velvetleaf results, listed for orientation:
CC(C)(C)c1ccn(C2C(=O)N(c3cccc(C(F)(F)F)c3)C[S+]2[O-])n1 (stereo not drawn): 20
CCCCC(CCCC)c1ccn(C2OCN(c3cccc(OC(F)(F)F)c3)C2=O)n1 (stereo not drawn): 0
CC1(C)CCc2cn(C3CCN(c4cccc(C(F)(F)F)c4)C3=O)nc21 (stereo not drawn): 0
Cc1ccc(N2CCC(n3ccc(C(C)(C)C)n3)C2=O)cc1OCCI (stereo not drawn): 0
CCC(C)c1nn(C2CCN(c3cccc(C(F)(F)F)c3)C2=O)cc1Cl (stereo not drawn): 0

Prompt: What value of Plant response rating, Velvetleaf has been recorded for this entry: CCCCC(CCCC)c1ccn(C2SCN(c3cccc(OC(F)(F)F)c3)C2=O)n1 (stereo not drawn)
Completion: 0

Prompt: // query Plant response rating, Velvetleaf value for entry CC(C)(C)c1ccn(C2OCN(c3cccc(OC(F)(F)F)c3)C2=O)n1 (stereo not drawn)
Completion: 20

Prompt: Returns the measured Plant response rating, Velvetleaf for the input compound. Input: COc1cc(N2CCC(n3ccc(C(C)(C)C)n3)C2=O)ccc1Cl (stereo not drawn)
Completion: 100

Prompt: # Plant response rating, Velvetleaf lookup, item CC(C)(C)c1ccn(C2CCN(c3ccc(Cl)c(Cl)c3)C2=O)n1 (stereo not drawn)
Completion: 100

Prompt: Which Plant response rating, Velvetleaf is listed for CCC(CC)c1ccn(C2CCN(c3ccc(C)c(OC)c3)C2=O)n1 (stereo not drawn) ?
Completion: 80

Prompt: Fill blank: measured Plant response rating, Velvetleaf of the compound Cc1c(Cl)cc(N2CCC(n3ccc(C(C)(C)C)n3)C2=O)cc1Cl (stereo not drawn) is ____.
Completion: 0

Prompt: Which value of Plant response rating, Velvetleaf has been reported for CC(C)(C)c1ccn(C2CCN(c3cccc(SC(F)(F)F)c3)C2=O)n1 (stereo not drawn) in the records?
Completion: 0

###

Entries and their Plant response rating, Barnyardgrass values follow.
# System: barnyardgrass (Echinochloa crus-galli)
# test-summary: Test B postemergence
# Assay type: in vivo
# condition: Rate 500 g/ha, scale 0 to 100, 0 is no effect, 100 is complete control, 13 to 15 days
The reply should be a number, written without any unit.

// solved cases for Plant response rating, Barnyardgrass follow
CCC(C)c1ccn(C2OCN(c3cccc(OC(F)F)c3)C2=O)n1 (stereo not drawn) [Compound 134]: 100
CC(C)c1ccn(C2SCN(c3cccc(OC(F)(F)F)c3)C2=O)n1 (stereo not drawn) [Compound 31]: 100
Cc1c(F)cc(N2CCC(n3ccc(C(C)(C)C)n3)C2=O)cc1Br (stereo not drawn) [Compound 78]: 0

Prompt: # Plant response rating, Barnyardgrass lookup, item CC1CCc2cn(C3CCN(c4cccc(C(F)(F)F)c4)C3=O)nc21 (stereo not drawn) [Compound 11]
Completion: 0

Prompt: Value lookup for Plant response rating, Barnyardgrass; key = Cc1ccc(N2CCC(n3ccc(C(C)(C)C)n3)C2=O)cc1OCCCl (stereo not drawn) [Compound 109]
Completion: 0

Prompt: Would you kindly share the measured Plant response rating, Barnyardgrass for COc1cc(N2CCC(n3ccc(C(C)C)n3)C2=O)ccc1C (stereo not drawn) [Compound 85] ?
Completion: 50

###

# Tested on: barnyardgrass (Echinochloa crus-galli)
# test-summary: Test B preemergence
# Assay type: in vivo
# condition: Preemergence, Rate 500 g/ha; scale 0 to 100, 0 no effect, 100 complete control
Measured Plant response rating, Barnyardgrass values are reported for all entries that follow.
Format: numeric value only, no unit, no commentary.

Worked examples follow.
COc1cc(N2CCC(n3ccc(C(C)(C)C)n3)C2=O)cc2ccccc12 (centres unmarked) [Compound 136]: 0
CCC(C)c1ccn(C2SCN(c3cccc(C(F)(F)F)c3)C2=O)n1 (centres unmarked) [Compound 20]: 100
CC(C)(C)c1ccn(C2SCN(c3cccc(OC(F)F)c3)C2=O)n1 (centres unmarked) [Compound 36]: 100
CC(C)(C)c1ccn(C2CCN(c3ccc4c(c3)CCC4)C2=O)n1 (centres unmarked) [Compound 105]: 0

Prompt: Query (molecule): CCOc1ccn(C2CCN(c3cccc(C(F)(F)F)c3)C2=O)n1 (centres unmarked) [Compound 61] ; field requested: Plant response rating, Barnyardgrass
Completion: 0

###

# Test system: morning glory (Ipomoea hederacea)
# test-summary: Test B preemergence
# Assay type: in vivo
# condition: preemergence; Rate 125 g/ha; scale 0 to 100, 0 no effect, 100 complete control
measured-attribute: Plant response rating, Morningglory

// known answers, use as guide
Cc1ccn(C2SCN(c3cccc(C(F)(F)F)c3)C2=O)n1 (stereo not drawn): 0
O=C1C(n2cccn2)SCN1c1cccc(C(F)(F)F)c1 (stereo not drawn): 0
O=C1C(n2ccc(C3CC3)n2)CCN1c1cccc(C(F)(F)F)c1 (stereo not drawn): 0
CC1(C)CCc2cn(C3CCN(c4cccc(C(F)(F)F)c4)C3=O)nc21 (stereo not drawn): 0
CCC(CC)c1ccn(C2SCN(c3cccc(C(F)(F)F)c3)C2=O)n1 (stereo not drawn): 90
CC(C)(C)c1nn(C2CCN(c3cccc(C(F)(F)F)c3)C2=O)cc1Cl (stereo not drawn): 0
CCC(C)c1ccn(C2OCN(c3cccc(C(F)(F)F)c3)C2=O)n1 (stereo not drawn): 0
O=C1C(n2cc(Cl)c(C3CC3)n2)CCN1c1cccc(C(F)(F)F)c1 (stereo not drawn): 0

Consider the additional compound presented here.
Prompt: Consider the compound CC(C)(C)c1ccn(C2SCN(c3cccc(C(F)(F)F)c3)C2=O)n1 (stereo not drawn) and give its measured Plant response rating, Morningglory.
Completion: 20
